Answer each item with its documented relative binding affinity (RBA).
# TESTED_TARGET: Estrogen receptor (Rattus norvegicus) (UniProt P06211+Q62986)
# ASSAY_INFO: Relative binding affinity against estrogen receptor(ER)
# Assay type: protein assay
Answers are plain numbers.

Example entries begin here.
COc1ccc2c(c1)OC(c1ccc(OCCN3CCCCC3)cc1)C(c1ccccc1)=C2 (configuration not stated); 0.02
O=C(c1ccc(OCCN2CCCC2)cc1)c1c(-c2ccc(O)cc2)sc2cc(O)ccc12; 93
Oc1ccc(C2=Cc3ccccc3OC2c2ccc(OCCN3CCCCC3)cc2)cc1 (configuration not stated); 4.2

Give me relative binding affinity (RBA) for each of these compounds, listed below.
1. Oc1ccc(C2=Cc3ccc(O)cc3OC2c2ccc(O)cc2)cc1 (configuration not stated)
2. Oc1ccc2c(c1)OC(c1ccc(OCCN3CCCCC3)cc1)C(c1ccccc1)=C2 (configuration not stated)
3. Oc1ccc(C2=Cc3ccc(O)cc3OC2c2ccc(OCCN3CCCCC3)cc2)cc1 (configuration not stated)
4. COc1ccc(C2=C(C(=O)c3ccc(OCCN4CCCC4)cc3)c3ccccc3CC2)cc1

Solution:
2.2
9.5
49
8

====

# TESTED_TARGET: Estrogen receptor (Rattus norvegicus) (UniProt P06211+Q62986)
Label 1 when Mean weight < 30 mg; otherwise 0.

Exercise: Is Mean weight of Oc1ccc(C2=Cc3ccccc3OC2c2ccc(OCCN3CCCCC3)cc2)cc1 (stereo not drawn) strictly below 30 mg?
Solution: 1

Exercise: Is Mean weight of Oc1ccc(C2=Cc3ccc(O)cc3OC2c2ccc(O)cc2)cc1 (stereo not drawn) strictly below 30 mg?
Solution: 0

Exercise: Is Mean weight of COc1ccc2c(c1)OC(c1ccc(OCCN3CCCCC3)cc1)C(c1ccccc1)=C2 (stereo not drawn) strictly below 30 mg?
Solution: 0

Exercise: Is Mean weight of Oc1ccc(C2=Cc3ccc(O)cc3OC2c2ccc(OCCN3CCCCC3)cc2)cc1 (stereo not drawn) strictly below 30 mg?
Solution: 1

Exercise: Is Mean weight of C1=C(c2ccccc2)C(c2ccc(OCCN3CCCCC3)cc2)Oc2ccccc21 (stereo not drawn) strictly below 30 mg?
Solution: 1

Exercise: Is Mean weight of Oc1ccc2c(c1)OC(c1ccc(OCCN3CCCCC3)cc1)C(c1ccccc1)=C2 (stereo not drawn) strictly below 30 mg?
Solution: 1

Exercise: Is Mean weight of `O=C(c1ccc(OCCN2CCCC2)cc1)c1c(-c2ccc(O)cc2)sc2cc(O)ccc12` strictly below 30 mg?
Solution: 1

====

# System: Anti-estrogen binding site (AEBS) (Rattus norvegicus)
# ASSAY_INFO: Relative binding affinity against Antiestrogen binding site(AEBS)
Label Condition met when relative binding affinity (RBA) < 20; otherwise Condition not met.

C1=C(c2ccccc2)C(c2ccc(OCCN3CCCCC3)cc2)Oc2ccccc21 (configuration not stated); Condition not met
Oc1ccc(C2=Cc3ccc(O)cc3OC2c2ccc(OCCN3CCCCC3)cc2)cc1 (configuration not stated); Condition met
Oc1ccc(C2=Cc3ccccc3OC2c2ccc(OCCN3CCCCC3)cc2)cc1 (configuration not stated); Condition met

Exercise: Is relative binding affinity (RBA) of COc1ccc2c(c1)OC(c1ccc(OCCN3CCCCC3)cc1)C(c1ccccc1)=C2 (configuration not stated) strictly below 20?
Solution: Condition not met

Exercise: Is relative binding affinity (RBA) of `O=C(c1ccc(OCCN2CCCC2)cc1)c1c(-c2ccc(O)cc2)sc2cc(O)ccc12` strictly below 20?
Solution: Condition met

Exercise: Is relative binding affinity (RBA) of `COc1ccc(C2=C(C(=O)c3ccc(OCCN4CCCC4)cc3)c3ccccc3CC2)cc1` strictly below 20?
Solution: Condition not met

Exercise: Is relative binding affinity (RBA) of Oc1ccc2c(c1)OC(c1ccc(OCCN3CCCCC3)cc1)C(c1ccccc1)=C2 (configuration not stated) strictly below 20?
Solution: Condition met
